# melting point annotations

*Q* Any idea what its melting point is? The compound is `CCc1ccc2c(-c3cncc(Cl)c3)c(CCCC(=O)O)c(COC)nn12`
*A* 112 to 113 °C

*Q* Entry `CCc1ccc2c(-c3cncc(OC)c3)c(CCCCC(=O)O)c(COC)nn12` please
*A* 111 to 112 °C

*Q* Entry `CCc1ccc2c(-c3ccnc(Cl)c3)c(CCCCC(=O)O)c(C)nn12` please
*A* 139 to 140 °C

Further cases:
*Q* Any idea what its melting point is? The compound is `CCc1ccc2c(-c3cncc(OC)c3)c(CCC(=O)O)c(COC)nn12`
*A* 164 to 165 °C
